experiment: Immunotoxin (HA22) sensitization/mitigation study. Vehicle arm (PBS) (AID 1159510); conditions: cancer cells viability with PBS vehicle (HA22 study); series mostly up to 46.1 µM
The source made the active and inactive calls. The rule behind the calls is not given here.
Select the matching outcome among active, inactive

molecule	categoryLabel
O=C(c1cc(Cc2n[nH]c(=O)c3ccccc23)ccc1F)N1CCN(C(=O)C2CC2)CC1	active
CN1CCN(c2ccc3nc(-c4c(N)c5c(F)cccc5[nH]c4=O)[nH]c3c2)CC1	active
Cc1cc(-c2ccc(CC(=O)Nc3ccc(-c4cccnc4)cc3)cc2)ccn1	active
COCCNCCCn1c(C(=O)CF)c(-c2ccc(C)cc2)c2c(N)ncnc21	inactive
COc1ncc(-c2ccc3nccc(-c4ccnnc4)c3c2)cc1NS(=O)(=O)c1ccc(F)cc1F	active

Ask | Dear colleague, could you share the recorded outcome for "CCC(=O)N1CCN(c2ccc(-n3c(=O)ccc4cnc5ccc(-c6cnc7ccccc7c6)cc5c43)cc2C(F)(F)F)CC1" when you have a moment?
Reply | active

Ask | Next molecule up: "O=c1[nH]nc(Sc2ncc([N+](=O)[O-])s2)n1-c1ccc2c(c1)OCCO2"
Reply | active

Ask | Next molecule up: "NC(=O)Nc1cc(-c2cccc(F)c2)sc1C(=O)N[C@H]1CCCNC1"
Reply | active
